# Tested on: TK-10
# ASSAY: NCI tumour cell line growth inhibition, 48 h
Activity calls are given as the source filed them. No stated cut-off is given here; in the data, active = GI50 up to about 1.1 µM and inactive = higher.
Would you mind telling me the reported GI50 of each entry?

Name the recorded GI50 of the item CCN(CC)CCn1c(=O)c2ccccc2n2c3c(=O)n(C)c(=O)n(C)c3nc12 in your answer.
19.6 µM (inactive)

For the compound CC(=O)NC1C(OCc2ccccc2)OC(CO)C(O)C1OCC(=O)NC(C)C(=O)NC(CCC(=O)OCCNC(=O)c1cccc2cc3ccccc3nc12)C(N)=O (stereo not drawn) , give its reported GI50.
16.1 µM (inactive)

Output GI50 of C=CCc1ccc(Oc2cc(CC=C)c3c(c2O)O[C@@H](CO)[C@H]3c2ccc(O)c(-c3cc(CC=C)ccc3O)c2)cc1
> 100 µM (inactive)

Supply GI50 value. Item: N#CC1(C#N)NC(c2ccsc2)C(C#N)(C#N)NC1c1ccsc1 (stereo not drawn)
> 100 µM (inactive)

Answer with the recorded GI50 for the compound listed here: Cc1c(Cl)ccc2c1NC(=O)C2(O)C(C(=O)c1ccccc1)c1ccccc1 (stereo not drawn)
52 µM (inactive)

Answer with the recorded GI50 of Cc1c(Cl)ccc2c(=O)c3cccc(CC(=O)O)c3oc12 only.
> 100 µM (inactive)

Query GI50 for CCOC(=O)C1CCC(=O)N1C(=O)c1cccc(Cl)c1 (stereo not drawn)
> 100 µM (inactive)

Name the recorded GI50 of the item C=C(C1=CC(=O)C(C)(C)O1)[C@@H]1CC=C([C@@H]2CC[C@H]3[C@@]2(C)CC[C@H]2C(C)(C)C(=O)[C@H](OC(=O)CC(C)(O)CC(=O)O)C[C@]32C)[C@H](O)O1 (stereo partly drawn) in your answer.
27.4 µM (inactive)
